# System: rat erythrocytes
# PROCEDURE_SUMMARY: Hemolysis assay
# Assay type: cell-based
# CONDITION: pH 7.4
Square brackets hold non-standard residues; d marks the D form. Peptide text beside a SMILES is read from it. Gly(N(CH2)2(3-indolyl)) = O=C(O)CNCCc1c[nH]c2ccccc12; Nspe = C[C@H](NCC(=O)O)c1ccccc1; Nphe = O=C(O)CNCc1ccccc1; Nlys = NCCCCNCC(=O)O
Can you tell me HC10 for the items I'm about to list?

Below are worked cases with known answers.
compound=C[C@@H](c1ccccc1)N(CC(N)=O)C(=O)CN(C(=O)CN(CCCCN)C(=O)CN(C(=O)CN(C(=O)CN(CCCCN)C(=O)CN(C(=O)CN(C(=O)CN(CCCCN)C(=O)CN(Cc1ccccc1)C(=O)CN(Cc1ccccc1)C(=O)CNCCCCN)[C@@H](C)c1ccccc1)[C@@H](C)c1ccccc1)[C@@H](C)c1ccccc1)[C@@H](C)c1ccccc1)[C@@H](C)c1ccccc1 quantity_measured=HC10 endpoint_value="6.9 µM"
compound="C[C@@H](c1ccccc1)N(CC(=O)N(CCc1c[nH]c2ccccc12)CC(N)=O)C(=O)CN(CCCCN)C(=O)CN(C(=O)CN(C(=O)CN(CCCCN)C(=O)CN(C(=O)CN(C(=O)CN(CCCCN)C(=O)CN(C(=O)CN(C(=O)CNCCCCN)[C@@H](C)c1ccccc1)[C@@H](C)c1ccccc1)[C@@H](C)c1ccccc1)[C@@H](C)c1ccccc1)[C@@H](C)c1ccccc1)[C@@H](C)c1ccccc1 [peptoid 7] (H-[Nlys][Nspe][Nspe][Nlys][Nspe][Nspe][Nlys][Nspe][Nspe][Nlys][Nspe][Gly(N(CH2)2(3-indolyl))]-NH2)" quantity_measured=HC10 endpoint_value="7.8 µM"
compound="C[C@@H](c1ccccc1)N(CC(=O)N(CCCCN)CC(=O)N(CCc1c[nH]c2ccccc12)CC(=O)N(CCc1c[nH]c2ccccc12)CC(N)=O)C(=O)CN(CCCCN)C(=O)CN(CCCCN)C(=O)CN(C(=O)CN(C(=O)CN(CCCCN)C(=O)CN(Cc1ccccc1)C(=O)CN(Cc1ccccc1)C(=O)CNCCCCN)[C@@H](C)c1ccccc1)[C@@H](C)c1ccccc1 [peptoid 41] (H-[Nlys][Nphe][Nphe][Nlys][Nspe][Nspe][Nlys][Nlys][Nspe][Nlys][Gly(N(CH2)2(3-indolyl))][Gly(N(CH2)2(3-indolyl))]-NH2)" quantity_measured=HC10 endpoint_value="> 100 µM"
compound=C[C@@H](c1ccccc1)N(CC(N)=O)C(=O)CN(CCCCN)C(=O)CN(CCCCN)C(=O)CN(C(=O)CN(C(=O)CN(CCCCN)C(=O)CN(CCc1c[nH]c2ccccc12)C(=O)CN(C(=O)CN(CCCCN)C(=O)CN(C(=O)CN(C(=O)CNCCCCN)[C@@H](C)c1ccccc1)[C@@H](C)c1ccccc1)[C@@H](C)c1ccccc1)[C@@H](C)c1ccccc1)[C@@H](C)c1ccccc1 quantity_measured=HC10 endpoint_value="> 100 µM"
compound="C[C@@H](c1ccccc1)N(CC(=O)N(CCCCN)CC(=O)N(CC(=O)N(CC(=O)N(CCCCN)CC(=O)N(CC(=O)N(CC(=O)N(CCCCN)CC(=O)N(CCCCN)CC(N)=O)[C@@H](C)c1ccccc1)[C@@H](C)c1ccccc1)[C@@H](C)c1ccccc1)[C@@H](C)c1ccccc1)C(=O)CN(C(=O)CNCCCCN)[C@@H](C)c1ccccc1 [peptoid 49] (H-[Nlys][Nspe][Nspe][Nlys][Nspe][Nspe][Nlys][Nspe][Nspe][Nlys][Nlys]-NH2)" quantity_measured=HC10 endpoint_value="> 100 µM"

Respectfully, I request HC10 for each entry included below.
1. C[C@@H](c1ccccc1)N(CC(=O)N(CCCCN)CC(=O)N(CC(=O)N(CC(=O)N(CCCCN)CC(=O)N(CCc1c[nH]c2ccccc12)CC(=O)N(CCc1c[nH]c2ccccc12)CC(N)=O)[C@@H](C)c1ccccc1)[C@@H](C)c1ccccc1)C(=O)CN(CCCCN)C(=O)CN(CCCCN)C(=O)CN(C(=O)CN(C(=O)CNCCCCN)[C@@H](C)c1ccccc1)[C@@H](C)c1ccccc1 [peptoid 30] (H-[Nlys][Nspe][Nspe][Nlys][Nlys][Nspe][Nlys][Nspe][Nspe][Nlys][Gly(N(CH2)2(3-indolyl))][Gly(N(CH2)2(3-indolyl))]-NH2)
2. C[C@@H](c1ccccc1)N(CC(=O)N(CCCCN)CC(=O)N(CC(=O)N(CC(=O)N(CCCCN)CC(=O)N(CC(=O)N(CC(=O)N(CCCCN)CC(N)=O)[C@@H](C)c1ccccc1)[C@@H](C)c1ccccc1)[C@@H](C)c1ccccc1)[C@@H](C)c1ccccc1)C(=O)CN(C(=O)CN(CCCCN)C(=O)CN(CCc1c[nH]c2ccccc12)C(=O)CNCCc1c[nH]c2ccccc12)[C@@H](C)c1ccccc1 [peptoid 37] (H-[Gly(N(CH2)2(3-indolyl))][Gly(N(CH2)2(3-indolyl))][Nlys][Nspe][Nspe][Nlys][Nspe][Nspe][Nlys][Nspe][Nspe][Nlys]-NH2)
3. C[C@@H](c1ccccc1)N(CC(N)=O)C(=O)CN(CCCCN)C(=O)CN(CCCCN)C(=O)CN(C(=O)CN(C(=O)CN(CCCCN)C(=O)CN(C(=O)CN(C(=O)CN(CCCCN)C(=O)CN(Cc1ccccc1)C(=O)CN(Cc1ccccc1)C(=O)CNCCCCN)[C@@H](C)c1ccccc1)[C@@H](C)c1ccccc1)[C@@H](C)c1ccccc1)[C@@H](C)c1ccccc1

Resp:
1: > 100 µM; 2: 21.1 µM; 3: > 100 µM

Summary for this compound, C[C@@H](c1ccccc1)N(CC(N)=O)C(=O)CN(CCCCN)C(=O)CN(CCCCN)C(=O)CN(C(=O)CN(C(=O)CN(CCCCN)C(=O)CN(C(=O)CN(C(=O)CN(CCCCN)C(=O)CN(CCc1c[nH]c2ccccc12)C(=O)CN(CCc1c[nH]c2ccccc12)C(=O)CNCCCCN)[C@@H](C)c1ccccc1)[C@@H](C)c1ccccc1)[C@@H](C)c1ccccc1)[C@@H](C)c1ccccc1 : HC10 is 77.7 µM
